Listed here are variants together with their documented SGCB cell-surface expression functional score (log10).
B1: library; numbered along this chain (parent)
chain: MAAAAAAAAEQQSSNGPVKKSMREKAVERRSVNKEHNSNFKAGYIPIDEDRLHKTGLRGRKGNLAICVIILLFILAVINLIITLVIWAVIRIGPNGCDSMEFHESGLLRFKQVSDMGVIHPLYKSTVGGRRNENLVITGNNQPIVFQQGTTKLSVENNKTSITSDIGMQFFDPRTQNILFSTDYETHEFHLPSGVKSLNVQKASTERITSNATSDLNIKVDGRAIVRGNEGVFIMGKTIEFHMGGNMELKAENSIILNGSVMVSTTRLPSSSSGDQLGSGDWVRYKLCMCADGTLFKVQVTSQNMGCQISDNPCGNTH

- Variants of: B1
- Method summary: SGCB cell-surface expression functional score (HA stain, bin4 vs bin1, normalised to synonymous) (log10 ratio); higher = more cell-surface SGCB (functional)

Worked set:
Mutation label	Reported measurement
D221A	0.18
G280F	0.08
K34A	-0.03

Tell us which SGCB cell-surface expression functional score (log10) value is on record for D98V -0.14

Name the recorded SGCB cell-surface expression functional score (log10) of the item K286M in your answer. 0.29

Look up and state reported SGCB cell-surface expression functional score (log10) for M168L 0.01

Quick one: give measured SGCB cell-surface expression functional score (log10) for K152N -0.11

Please give the documented SGCB cell-surface expression functional score (log10) of L249I 0.85

Specify measured SGCB cell-surface expression functional score (log10) for G16Q . 0.97

Report SGCB cell-surface expression functional score (log10), nothing else, for this variant: G62C 0.33

Entry Q299A needs its SGCB cell-surface expression functional score (log10) filled in; supply it. 0.08

// Input: G231I . Output its SGCB cell-surface expression functional score (log10) only. -1.29

For the variant F180I , report SGCB cell-surface expression functional score (log10). -1.72

Give SGCB cell-surface expression functional score (log10) for I45P 0.52

Return SGCB cell-surface expression functional score (log10) for the following variant: F40Y 0.49

This collection of values is drawn from the supplement of paper PMC10266784.
